Measured values drawn from patent US20230210866A1 for this set.

Test system: SARS-CoV-2 virus
METHOD SUMMARY: Vero E6 cells infected by SARS-CoV-2, viral infectious titre in culture supernatant
Assay type: cell-based
EXPERIMENTAL SETUP: Severe acute respiratory syndrome coronavirus 2, Vero C1008, Vero E6, MOI 0.01, 48 hpi, monotherapy
READOUT LABEL: IC50 (µM)
Use µM as the unit, but write only the number.

Report IC50 for COc1ccc2cc3[n+](cc2c1OC)CCc1cc2c(cc1-3)OCO2 [Berberine, berberine] please.
17.5
